Target: Nuclear factor erythroid 2-related factor 2 (Homo sapiens) (UniProt Q16236)
Sequence (Q16236 whole entry): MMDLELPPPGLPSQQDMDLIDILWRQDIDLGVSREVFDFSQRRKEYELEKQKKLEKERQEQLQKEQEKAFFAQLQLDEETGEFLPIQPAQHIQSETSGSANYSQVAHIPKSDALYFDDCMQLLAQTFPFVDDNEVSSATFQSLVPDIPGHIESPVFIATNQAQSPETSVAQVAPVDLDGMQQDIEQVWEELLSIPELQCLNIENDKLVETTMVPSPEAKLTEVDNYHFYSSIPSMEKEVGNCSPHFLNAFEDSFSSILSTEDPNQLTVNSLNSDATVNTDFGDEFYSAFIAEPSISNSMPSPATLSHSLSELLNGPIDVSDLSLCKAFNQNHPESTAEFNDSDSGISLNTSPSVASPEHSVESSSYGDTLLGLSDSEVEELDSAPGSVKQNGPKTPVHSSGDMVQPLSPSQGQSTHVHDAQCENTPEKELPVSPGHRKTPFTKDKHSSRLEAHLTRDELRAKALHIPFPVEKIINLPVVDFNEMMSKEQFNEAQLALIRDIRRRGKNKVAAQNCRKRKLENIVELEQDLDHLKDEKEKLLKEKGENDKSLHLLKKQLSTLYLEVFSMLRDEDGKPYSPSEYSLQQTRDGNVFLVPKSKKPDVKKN
Assay: Activation of Nrf2 in human NPC-TW01 or HONE1 cells expressing ARE-luciferase at 20 uM incubated for 16 hrs by luciferase reporter gene assay relative to untreated control
Assay type: cell-based
Experimental readout: fold change (FC)

| Chemical string | Experimental readout | Recorded number |
| --- | --- | --- |
| O/N=C(\COc1ccc2ccccc2c1)c1ccc2ccccc2c1 | fold change (FC) | 1.36 |
| O/N=C(\COc1ccc2ccccc2c1)c1ccc(Br)cc1 | fold change (FC) | 0.95 |
| O/N=C(\COc1cccc2ccccc12)c1ccccc1 | fold change (FC) | 1.14 |
| O/N=C(\COc1cccc2ccccc12)c1ccc(F)c(F)c1 | fold change (FC) | 0.86 |
| COc1ccc(/C(COc2ccc3ccccc3c2)=N/O)cc1 | fold change (FC) | 1.65 |
| COc1ccc(OC)c(/C(COc2ccc3ccccc3c2)=N/O)c1 | fold change (FC) | 0.65 |
| O/N=C(\COc1cccc2ccccc12)c1ccc(F)cc1 | fold change (FC) | 1.09 |
| O/N=C(\COc1cccc2ccccc12)c1ccc(C(F)(F)F)cc1 | fold change (FC) | 1.01 |
| O/N=C(\COc1ccc2ccccc2c1)c1ccc(F)c(F)c1 | fold change (FC) | 1.42 |
| O/N=C(\COc1ccc2ccccc2c1)c1ccc(Cl)cc1 | fold change (FC) | 1.07 |
| O/N=C(\COc1ccc2ccccc2c1)c1ccc(F)cc1 | fold change (FC) | 2.61 |
| CC(C)(C)c1cc(O)ccc1O | fold change (FC) | 1.77 |
